Kindly state hERG current change (%, negative = inhibition) at 10uM for each of the entries shown.
Biological target: human ether-à-go-go-related gene (hERG) potassium channel (human);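 note: peak tail current of the secondary pulse compared with the same well before compound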
Sequence (Q12809 whole entry, looked up): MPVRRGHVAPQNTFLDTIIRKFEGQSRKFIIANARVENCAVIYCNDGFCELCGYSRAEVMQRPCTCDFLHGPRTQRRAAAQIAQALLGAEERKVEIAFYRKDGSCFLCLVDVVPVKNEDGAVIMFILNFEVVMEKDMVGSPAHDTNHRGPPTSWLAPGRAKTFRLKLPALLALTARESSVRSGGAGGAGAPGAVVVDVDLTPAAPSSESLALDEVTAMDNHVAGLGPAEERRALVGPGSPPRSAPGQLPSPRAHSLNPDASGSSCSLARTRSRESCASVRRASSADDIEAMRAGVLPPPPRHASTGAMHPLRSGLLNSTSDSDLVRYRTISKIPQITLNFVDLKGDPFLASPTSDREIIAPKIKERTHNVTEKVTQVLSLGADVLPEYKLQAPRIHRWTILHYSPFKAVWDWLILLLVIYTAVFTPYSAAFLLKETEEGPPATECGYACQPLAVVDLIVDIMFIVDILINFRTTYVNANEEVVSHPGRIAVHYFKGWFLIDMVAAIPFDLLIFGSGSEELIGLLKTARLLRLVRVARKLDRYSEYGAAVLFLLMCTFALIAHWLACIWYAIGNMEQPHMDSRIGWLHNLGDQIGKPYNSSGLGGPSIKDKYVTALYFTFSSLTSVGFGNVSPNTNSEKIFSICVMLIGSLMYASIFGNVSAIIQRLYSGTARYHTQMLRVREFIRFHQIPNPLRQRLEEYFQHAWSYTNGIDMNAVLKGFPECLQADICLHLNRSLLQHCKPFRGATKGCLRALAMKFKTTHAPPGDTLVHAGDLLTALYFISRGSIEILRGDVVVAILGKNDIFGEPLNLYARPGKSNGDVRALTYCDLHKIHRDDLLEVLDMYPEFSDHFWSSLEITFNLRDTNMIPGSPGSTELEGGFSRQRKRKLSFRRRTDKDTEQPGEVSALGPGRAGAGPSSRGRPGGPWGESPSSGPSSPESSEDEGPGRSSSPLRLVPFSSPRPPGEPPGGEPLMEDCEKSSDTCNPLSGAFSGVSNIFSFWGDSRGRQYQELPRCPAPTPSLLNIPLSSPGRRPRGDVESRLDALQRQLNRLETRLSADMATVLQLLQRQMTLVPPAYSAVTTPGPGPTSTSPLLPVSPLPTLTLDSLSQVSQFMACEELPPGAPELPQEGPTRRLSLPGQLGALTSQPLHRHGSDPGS
Assay: primary screen, population patch clamp on CHO cells stably expressing hERG; higher = less effect of the substance
Description: Briefly, Chinese hamster ovary (CHO) cells stably expressing the hERG channel were dislodged from tissue culture flasks and dispensed into PPC plates. […] During the recording, background leak currents were estimated by a 100 ms step to -80 mV from an initial holding potential of -70 mV and subtracted from the subsequent current measurement. The campaign was conducted in two phases using slight differences in recording protocol. […]
The campaign covered roughly 310,000 compounds. About 14,000 (4.5%) showed an effect of 50% or more. Effects have a minus sign here. Many of the other results were omitted from the sample, so strong results are more common in it than they were.
// return numeric value only (unit: %, not printed)

IN: Return reported hERG current change (%, negative = inhibition) at 10uM; argument: COc1ccc(CC2(CO)CCN(C/C=C/c3ccccc3OC)CC2)cc1
OUT: -72.8

IN: Could you tell me which hERG current change (%, negative = inhibition) at 10uM is on file for CC(C(=O)OCC(=O)Nc1ccc(S(=O)(=O)N2CCCCC2)cc1)N1C(=O)c2ccccc2C1=O (stereo not shown) ?
OUT: -16.4

IN: Would you mind telling me what hERG current change (%, negative = inhibition) at 10uM value was observed for Cc1ccc(NC2=Nc3ccccc3CS2)cc1 ?
OUT: 8.04

IN: Please report the recorded hERG current change (%, negative = inhibition) at 10uM for CN(C)S(=O)(=O)c1cccc(NC(=O)COC(=O)c2cc(=O)c3ccccc3o2)c1 .
OUT: 11.3

IN: Can you share its hERG current change (%, negative = inhibition) at 10uM? I mean this compound: CCN(c1cccc(C)c1)S(=O)(=O)c1nnc(NC(=O)c2ccco2)s1
OUT: 3.8

IN: # get_value(readout='hERG current change (%, negative = inhibition) at 10uM', item= O=C(COC(=O)c1ccccc1)Nc1cccc(S(=O)(=O)N2CCOCC2)c1 )
OUT: -26.5

IN: Looking for the measured hERG current change (%, negative = inhibition) at 10uM of CC(C(=O)OCC(=O)Nc1cccc(S(=O)(=O)N2CCOCC2)c1)N1C(=O)c2ccccc2C1=O (stereo not shown) , can you help?
OUT: -58

IN: GET /values?readout=hERG current change (%, negative = inhibition) at 10uM&item= COc1ccccc1/C=C/CN1CCCC(CO)(CCc2ccccc2)C1 (stereo not shown)
OUT: -74.7

IN: I'd like to know its hERG current change (%, negative = inhibition) at 10uM. The compound in question is COc1ccccc1/C=C/CN1CCC(CO)(Cc2ccccc2)CC1
OUT: -37.9

IN: Which value of hERG current change (%, negative = inhibition) at 10uM has been reported for COc1ccccc1/C=C/CN1CCCCC1 in the records?
OUT: -2.31
